Tested on: ULK2
Conditions: concentration: 1 μM,replicates: in singlicate; n = 1;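 note: KINOMEscan kinase panel screen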
observation.type: %Inh

COc1cc(Nc2nccc(N3CCC(NC(=O)c4cccc(C#N)c4)C3)n2)cc(OC)c1OC (stereo not drawn) [GSK1379751] | 0%

Can you give me %Inh for all of these, one by one?
1. Cn1cc(-c2cccc3c(N)c(C(N)=O)nnc23)cn1
2. CC(C)S(=O)(=O)N1CCN(Cc2ccc3c(c2)nc(NC(=O)c2ccsc2)n3C[C@H](O)c2ccccc2)CC1 [GW635815]

14%
60%

Hey, quick one: what's %Inh for each of these?
1. Cc1ccn2nc(-c3ccc(F)cc3)c(-c3ccncc3)c2c1.Cl [GW457859]
2. Cl.Nc1n[nH]c2cc(-c3ccccn3)ccc12 [GSK2189892]
3. Cc1nnc(-c2ccc3occ(-c4ccc(S(C)=O)cc4)c3n2)o1 (stereo not drawn)
4. C[C@@H]1CNc2c(sc3ccc4nc(-c5ccncc5)ccc4c23)C(=O)N1

1. 0%
2. 47%
3. 0%
4. 27%

Would you be so kind as to report %Inh for each listed record?
1. O=C(Nc1ccccc1)c1cccc(Oc2ccc3nccn3n2)c1
2. COc1cc2ncn(-c3cc(OCC4CCCCC4)c(C(N)=O)s3)c2cc1OC [GSK204559]

0%
0%

----------
Kindly state %Inh for each of the entries shown.
Tested on: YSK1
Construct: gene STK25
Details: concentration: 1 μM,replicates: in singlicate; n = 1
Numbers only, in %.

Guide cases for %Inh, answers given:
COc1cc2c(Nc3ccc(NC(=O)c4ccccc4)cc3)ncnc2cc1OCCCN1CCOCC1 [GSK301329] | 6
COc1cc(Nc2nccc(N3CCC(NC(=O)c4cccc(C#N)c4)C3)n2)cc(OC)c1OC (centres unmarked) [GSK1379751] | 3
CNC(=O)c1ccccc1Nc1nc(Nc2cccc(CS(C)(=O)=O)c2)ncc1C.O=CO [GSK1520489] | 45
CS(=O)c1ccc(-c2coc3ccc(-c4n[nH]c(=O)o4)cc23)cc1 (centres unmarked) | 7
CCN1CCN(CCCC(=O)Nc2n[nH]c3nc(-c4ccc(O)cc4)c(Br)cc23)CC1 [SB-731579] | 0

Batch request: %Inh per item, same order as input.
1. O=C(Nc1cccc(Oc2ccc3nccn3n2)c1)Nc1cccc(C(F)(F)F)c1
2. CCNCC(Cc1ccccc1)NC(=O)c1cc(Br)c(-c2ccnc3[nH]ccc23)s1.Cl.Cl (centres unmarked) [GSK1383280]
3. COc1cccc(OC)c1C(=O)Nc1cccc(-c2nn3ccccc3c2-c2ccnc(Nc3cccc(F)c3)n2)c1 [GSK361065]

1. 0
2. 18
3. 1

----------
System: MST1
Construct: gene STK4
Conditions: concentration: 1 μM,replicates: in singlicate; n = 1
Could you please report measured %Inh for the items listed next?
Answers are plain numbers, in %.

CNC(=O)c1ccccc1Nc1nc(Nc2cccc(CS(C)(=O)=O)c2)ncc1C.O=CO | 80

State recorded %Inh for all listed molecules.
1. Cl.c1ccc(Oc2ccc(Nc3ccnc4cc(-c5ccc(CN6CCNCC6)o5)ccc34)cc2)nc1
2. CS(=O)c1ccc(-c2coc3ccc(-c4n[nH]c(=O)o4)cc23)cc1 (centres unmarked)
3. COC(=O)c1cccc(NC(=O)NC2CCN(c3ccnc(Nc4cc(OC)c(OC)c(OC)c4)n3)C2)c1 (centres unmarked)
4. CC(=O)Nc1ccc(-c2cc3ncnc(SCC(=O)O)c3s2)cc1

1: 0; 2: 0; 3: 6; 4: 2
